Origin of values: patent US20170037111A1

measured-on: HLA-A*02:01 (Homo sapiens, UniProt P04439, D140Y/D185E/D98H/E176V/E277Q/G131W/G231S/I119V/I121R/I166T/I218V/L300P/L318F/N151K/N90K/P208A/P217A/Q86G/Q94H/R138H/R169H/T345S)
method-summary: MHC binding assay (UV-ligand exchange, β2m ELISA, peptide exchange yield)
condition-details: MHC class I binding score; binding to HLA-A*02:01 ranged by peptide exchange yield (UV-ligand exchange, β2m ELISA)

substance: 169 (NLPEYLPFV; listed as Homo sapiens) [compound 169]
Peptide exchange: ″+++″ (≧50% = +++)

substance: 220 (LLQKFVPEI; listed as Homo sapiens) [compound 220]
Peptide exchange: ″++″ (≧20% = ++)

substance: 525 (VLLEAGEGLVTI; listed as Homo sapiens) [compound 525]
Peptide exchange: ″+++″ (≧50% = +++)

substance: 101 (ILVGGGALATV; listed as Homo sapiens) [compound 101]
Peptide exchange: ″+++″ (≧50% = +++)

substance: 115 (AIAGAGILYGV; listed as Homo sapiens) [compound 115]
Peptide exchange: ″++″ (≧20% = ++)

substance: 361 (ALYELEGTTV; listed as Homo sapiens) [compound 361]
Peptide exchange: ″+++″ (≧50% = +++)

substance: 88 (FLLVGDLMAV; listed as Homo sapiens) [compound 88]
Peptide exchange: ″+++″ (≧50% = +++)

substance: 359 (YLLPESVDL; listed as Homo sapiens) [compound 359]
Peptide exchange: ″+++″ (≧50% = +++)
